I'd appreciate it if you could supply IC50 values for the items below.
molecular target: PI3K p110δ (Homo sapiens (Human)); assay: PI3K isoform biochemical assay, p110δ
Sequence (O00329 whole entry, canonical isoform): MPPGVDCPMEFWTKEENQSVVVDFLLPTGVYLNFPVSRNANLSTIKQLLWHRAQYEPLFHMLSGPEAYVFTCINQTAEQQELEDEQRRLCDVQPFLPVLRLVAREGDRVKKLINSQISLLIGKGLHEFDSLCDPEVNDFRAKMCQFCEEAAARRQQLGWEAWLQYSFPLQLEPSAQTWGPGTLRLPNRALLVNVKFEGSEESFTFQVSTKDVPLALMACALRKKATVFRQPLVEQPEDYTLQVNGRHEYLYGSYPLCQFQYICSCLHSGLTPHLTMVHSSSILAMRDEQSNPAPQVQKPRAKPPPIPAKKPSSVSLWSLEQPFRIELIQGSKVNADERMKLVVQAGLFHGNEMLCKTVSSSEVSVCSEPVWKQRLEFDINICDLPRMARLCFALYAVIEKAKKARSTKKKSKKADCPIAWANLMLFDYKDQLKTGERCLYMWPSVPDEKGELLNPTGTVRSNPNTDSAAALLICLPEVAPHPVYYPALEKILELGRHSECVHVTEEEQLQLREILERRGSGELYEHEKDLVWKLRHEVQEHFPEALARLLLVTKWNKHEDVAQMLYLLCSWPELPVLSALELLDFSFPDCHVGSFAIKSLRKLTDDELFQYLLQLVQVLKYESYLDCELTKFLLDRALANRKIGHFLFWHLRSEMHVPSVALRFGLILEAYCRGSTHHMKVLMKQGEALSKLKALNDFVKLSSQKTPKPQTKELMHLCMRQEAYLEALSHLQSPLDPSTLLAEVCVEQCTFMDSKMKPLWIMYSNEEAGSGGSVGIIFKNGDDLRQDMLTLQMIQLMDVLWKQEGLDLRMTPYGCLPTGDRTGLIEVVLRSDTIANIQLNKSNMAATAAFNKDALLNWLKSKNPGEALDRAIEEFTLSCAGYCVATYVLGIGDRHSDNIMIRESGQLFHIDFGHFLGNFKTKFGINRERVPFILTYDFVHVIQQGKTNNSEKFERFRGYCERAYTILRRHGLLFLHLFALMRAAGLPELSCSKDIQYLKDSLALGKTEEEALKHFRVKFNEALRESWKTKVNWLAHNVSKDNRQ
Sequence (P27986 whole entry partner, canonical isoform): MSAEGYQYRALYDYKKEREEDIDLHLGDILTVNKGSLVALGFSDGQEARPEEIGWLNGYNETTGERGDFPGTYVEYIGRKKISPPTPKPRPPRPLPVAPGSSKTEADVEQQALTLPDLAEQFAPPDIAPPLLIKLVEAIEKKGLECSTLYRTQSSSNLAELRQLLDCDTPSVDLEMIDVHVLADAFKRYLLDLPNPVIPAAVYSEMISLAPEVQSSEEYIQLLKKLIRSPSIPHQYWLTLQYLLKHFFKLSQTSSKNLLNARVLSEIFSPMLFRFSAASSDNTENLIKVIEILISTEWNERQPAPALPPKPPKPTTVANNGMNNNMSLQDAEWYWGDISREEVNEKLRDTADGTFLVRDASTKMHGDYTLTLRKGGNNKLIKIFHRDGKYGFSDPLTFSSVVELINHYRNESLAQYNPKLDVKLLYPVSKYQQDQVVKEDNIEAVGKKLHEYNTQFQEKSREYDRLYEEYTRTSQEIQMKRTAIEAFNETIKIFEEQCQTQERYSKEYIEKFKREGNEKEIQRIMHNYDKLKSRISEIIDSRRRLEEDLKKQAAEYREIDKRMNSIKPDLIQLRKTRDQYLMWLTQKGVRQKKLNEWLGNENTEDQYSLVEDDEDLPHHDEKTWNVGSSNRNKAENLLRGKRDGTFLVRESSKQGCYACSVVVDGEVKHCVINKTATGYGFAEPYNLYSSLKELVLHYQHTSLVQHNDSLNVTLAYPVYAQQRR
# value in nM; strip the unit string

# input Return reported IC50; argument: `c1cc(-c2nc(N3CCOCC3)c3oc4ncc(CN5CCOCC5)cc4c3n2)c2cc[nH]c2c1`
# output 6

# input // IC50 lookup, key: `COCCN(C)Cc1cnc2oc3c(N4CCOCC4)nc(-c4cccc5[nH]ccc45)nc3c2c1`
# output 21

# input IC50 lookup needed for `c1cc(-c2nc(N3CCOCC3)c3sc4ncccc4c3n2)c2cc[nH]c2c1` , thanks.
# output 15

# input Need IC50, item `CN1CCN(Cc2cnc3oc4c(N5CCOCC5)nc(-c5cccc6[nH]ccc56)nc4c3c2)CC1`
# output 26

# input Please look up its IC50: `c1cc(-c2nc(N3CCOCC3)c3oc4ncccc4c3n2)c2cc[nH]c2c1`
# output 6

# input Could you tell me which IC50 is on file for `CN(C)Cc1cnc2oc3c(N4CCOCC4)nc(-c4cccc5[nH]ccc45)nc3c2c1` ?
# output 6

# input Requested read-out: IC50. Entry: `CN(C)C(=O)/C=C/c1cnc2oc3c(N4CCOCC4)nc(-c4cccc5[nH]ccc45)nc3c2c1`
# output 5

# input Returns the measured IC50 for the input compound. Input: `c1cc(-c2cnc3oc4c(N5CCOCC5)nc(-c5cccc6[nH]ccc56)nc4c3c2)c2cc[nH]c2c1`
# output 7

# input Give its IC50 value. Item: `c1cc(-c2nc(N3CCOCC3)c3oc4ncc(N5CCOCC5)cc4c3n2)c2cc[nH]c2c1`
# output 10

# input For `N#CCCN1CCN(Cc2cnc3oc4c(N5CCOCC5)nc(-c5cccc6[nH]ccc56)nc4c3c2)CC1` , what is its reported IC50?
# output 22

# input Reported IC50, compound `c1cnc2oc3c(N4CCOCC4)nc(-c4ccnc5[nH]ccc45)nc3c2c1` : ____
# output 33

---

molecular target: UniProt P42338; test: PI3K isoform biochemical assay, p110β
Sequence (P42338 whole entry, canonical isoform): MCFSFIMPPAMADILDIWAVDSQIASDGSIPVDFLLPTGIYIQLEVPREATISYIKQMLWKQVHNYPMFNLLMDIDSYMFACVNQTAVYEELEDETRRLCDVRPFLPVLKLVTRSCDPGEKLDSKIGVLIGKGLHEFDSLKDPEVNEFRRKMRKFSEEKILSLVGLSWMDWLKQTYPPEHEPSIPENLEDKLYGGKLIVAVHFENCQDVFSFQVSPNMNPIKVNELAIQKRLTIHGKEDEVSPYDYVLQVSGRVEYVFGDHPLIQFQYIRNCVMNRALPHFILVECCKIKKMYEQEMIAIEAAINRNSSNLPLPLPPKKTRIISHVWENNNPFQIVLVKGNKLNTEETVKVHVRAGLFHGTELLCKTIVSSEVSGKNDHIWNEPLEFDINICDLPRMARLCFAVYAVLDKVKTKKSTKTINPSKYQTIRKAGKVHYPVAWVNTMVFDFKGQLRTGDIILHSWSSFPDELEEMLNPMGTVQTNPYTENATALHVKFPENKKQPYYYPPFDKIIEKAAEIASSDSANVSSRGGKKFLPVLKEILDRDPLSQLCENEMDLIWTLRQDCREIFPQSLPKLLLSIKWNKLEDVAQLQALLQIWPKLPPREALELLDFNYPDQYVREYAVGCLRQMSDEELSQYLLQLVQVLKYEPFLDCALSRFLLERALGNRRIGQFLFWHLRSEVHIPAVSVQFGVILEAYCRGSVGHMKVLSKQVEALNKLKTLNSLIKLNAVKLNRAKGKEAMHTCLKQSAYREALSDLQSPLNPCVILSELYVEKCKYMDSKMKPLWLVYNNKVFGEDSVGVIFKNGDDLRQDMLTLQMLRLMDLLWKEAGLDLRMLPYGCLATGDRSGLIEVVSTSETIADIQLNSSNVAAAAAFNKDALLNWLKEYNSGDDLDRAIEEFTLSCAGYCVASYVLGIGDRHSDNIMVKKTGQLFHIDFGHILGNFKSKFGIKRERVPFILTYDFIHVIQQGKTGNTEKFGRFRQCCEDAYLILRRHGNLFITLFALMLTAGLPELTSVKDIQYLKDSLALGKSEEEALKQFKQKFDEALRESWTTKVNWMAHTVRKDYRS
Sequence (P27986 whole entry partner, canonical isoform): as the sequence (P27986 whole entry partner, canonical isoform) above
hey, just use y if measured IC50 is less than 60 nM, otherwise n

# input Regarding `c1cc(-c2nc(N3CCOCC3)c3oc4ncc(CN5CCOCC5)cc4c3n2)c2cc[nH]c2c1` , kindly confirm whether its IC50 is beneath 60 nM.
# output n

# input Please state whether IC50 is below 60 nM for `c1cnc2oc3c(N4CCOCC4)nc(-c4ccnc5[nH]ccc45)nc3c2c1`
# output y

# input Is it true that IC50 reported for `N#CCCN1CCN(Cc2cnc3oc4c(N5CCOCC5)nc(-c5cccc6[nH]ccc56)nc4c3c2)CC1` is less than 60 nM?
# output n

# input Please let me know if `c1cc(-c2nc(N3CCOCC3)c3sc4ncccc4c3n2)c2cc[nH]c2c1` shows IC50 below 60 nM.
# output n

# input Criterion: IC50 strictly below 60 nM. Is it met by `CN(C)C(=O)/C=C/c1cnc2oc3c(N4CCOCC4)nc(-c4cccc5[nH]ccc45)nc3c2c1` ?
# output n

# input Please let me know if `CN1CCN(Cc2cnc3oc4c(N5CCOCC5)nc(-c5cccc6[nH]ccc56)nc4c3c2)CC1` shows IC50 below 60 nM.
# output n

# input Quick check: does `c1cc(-c2nc(N3CCOCC3)c3oc4ncc(N5CCOCC5)cc4c3n2)c2cc[nH]c2c1` have IC50 under 60 nM?
# output y

# input Item `CN(C)Cc1cnc2oc3c(N4CCOCC4)nc(-c4cccc5[nH]ccc45)nc3c2c1` : IC50 beneath 60 nM, strictly?
# output n

# input Does the reported IC50 of `c1cc(-c2cnc3oc4c(N5CCOCC5)nc(-c5cccc6[nH]ccc56)nc4c3c2)c2cc[nH]c2c1` stay below 60 nM?
# output n

# input Hi there! Is IC50 for `c1cc(-c2nc(N3CCOCC3)c3oc4ncccc4c3n2)c2cc[nH]c2c1` below 60 nM, do you know?
# output y

# input Would you kindly verify if IC50 of `COCCN(C)Cc1cnc2oc3c(N4CCOCC4)nc(-c4cccc5[nH]ccc45)nc3c2c1` is strictly less than 60 nM?
# output n

---

molecular target: PI3K p110γ (Homo sapiens (Human), UniProt P48736); experiment: PI3K isoform biochemical assay, p110γ
Sequence (P48736 whole entry, canonical isoform): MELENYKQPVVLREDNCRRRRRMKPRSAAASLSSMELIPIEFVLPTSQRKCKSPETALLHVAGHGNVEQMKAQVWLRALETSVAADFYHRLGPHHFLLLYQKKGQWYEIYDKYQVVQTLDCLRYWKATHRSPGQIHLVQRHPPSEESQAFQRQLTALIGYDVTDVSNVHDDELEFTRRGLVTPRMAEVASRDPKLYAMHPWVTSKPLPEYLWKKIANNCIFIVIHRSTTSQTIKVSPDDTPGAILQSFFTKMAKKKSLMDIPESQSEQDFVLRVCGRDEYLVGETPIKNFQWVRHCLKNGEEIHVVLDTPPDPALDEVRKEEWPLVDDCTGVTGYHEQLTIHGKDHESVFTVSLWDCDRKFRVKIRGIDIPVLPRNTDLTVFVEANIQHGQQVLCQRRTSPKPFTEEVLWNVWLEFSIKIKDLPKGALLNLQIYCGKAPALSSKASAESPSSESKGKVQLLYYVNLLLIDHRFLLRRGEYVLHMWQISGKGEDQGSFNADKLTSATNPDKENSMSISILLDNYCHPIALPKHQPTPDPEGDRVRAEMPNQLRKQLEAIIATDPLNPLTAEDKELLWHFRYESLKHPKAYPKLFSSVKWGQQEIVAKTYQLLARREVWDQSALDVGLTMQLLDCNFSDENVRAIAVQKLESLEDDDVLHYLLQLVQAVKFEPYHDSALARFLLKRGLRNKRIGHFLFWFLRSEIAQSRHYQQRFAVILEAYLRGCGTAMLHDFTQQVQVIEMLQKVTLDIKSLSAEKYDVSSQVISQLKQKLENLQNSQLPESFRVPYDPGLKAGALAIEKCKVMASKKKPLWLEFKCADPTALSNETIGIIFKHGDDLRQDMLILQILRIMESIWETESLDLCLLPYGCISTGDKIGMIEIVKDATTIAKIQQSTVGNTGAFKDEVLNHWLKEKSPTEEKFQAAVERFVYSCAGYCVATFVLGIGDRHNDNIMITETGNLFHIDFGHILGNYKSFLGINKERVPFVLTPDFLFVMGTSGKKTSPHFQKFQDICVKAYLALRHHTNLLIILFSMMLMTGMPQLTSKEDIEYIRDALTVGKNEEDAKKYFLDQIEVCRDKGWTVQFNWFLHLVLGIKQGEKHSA
Just a reminder that ties go to class 0: only IC50 strictly below 600 nM counts as class 1.

# input Field: below-cutoff. Rule: recorded IC50 strictly less than 600 nM. Subject: `CN1CCN(Cc2cnc3oc4c(N5CCOCC5)nc(-c5cccc6[nH]ccc56)nc4c3c2)CC1`
# output class 0

# input Is IC50 of `c1cc(-c2nc(N3CCOCC3)c3oc4ncc(N5CCOCC5)cc4c3n2)c2cc[nH]c2c1` strictly below 600 nM?
# output class 1

# input Quick check: does `N#CCCN1CCN(Cc2cnc3oc4c(N5CCOCC5)nc(-c5cccc6[nH]ccc56)nc4c3c2)CC1` have IC50 under 600 nM?
# output class 0

# input Given the entry `c1cc(-c2cnc3oc4c(N5CCOCC5)nc(-c5cccc6[nH]ccc56)nc4c3c2)c2cc[nH]c2c1` , would its reported IC50 be below 600 nM?
# output class 0

# input A record lists `CN(C)C(=O)/C=C/c1cnc2oc3c(N4CCOCC4)nc(-c4cccc5[nH]ccc45)nc3c2c1` . Is its IC50 below 600 nM?
# output class 0

# input IC50 strictly < 600 nM for this molecule? `c1cc(-c2nc(N3CCOCC3)c3oc4ncc(CN5CCOCC5)cc4c3n2)c2cc[nH]c2c1`
# output class 0

# input Is the reported IC50 for `COCCN(C)Cc1cnc2oc3c(N4CCOCC4)nc(-c4cccc5[nH]ccc45)nc3c2c1` strictly below 600 nM?
# output class 0

# input # check: IC50 < 600 nM for `c1cnc2oc3c(N4CCOCC4)nc(-c4ccnc5[nH]ccc45)nc3c2c1`
# output class 1

---

biological target: PI3K p110α (Homo sapiens (Human)); assay: PI3K isoform biochemical assay, p110α
Sequence (P42336 whole entry, canonical isoform): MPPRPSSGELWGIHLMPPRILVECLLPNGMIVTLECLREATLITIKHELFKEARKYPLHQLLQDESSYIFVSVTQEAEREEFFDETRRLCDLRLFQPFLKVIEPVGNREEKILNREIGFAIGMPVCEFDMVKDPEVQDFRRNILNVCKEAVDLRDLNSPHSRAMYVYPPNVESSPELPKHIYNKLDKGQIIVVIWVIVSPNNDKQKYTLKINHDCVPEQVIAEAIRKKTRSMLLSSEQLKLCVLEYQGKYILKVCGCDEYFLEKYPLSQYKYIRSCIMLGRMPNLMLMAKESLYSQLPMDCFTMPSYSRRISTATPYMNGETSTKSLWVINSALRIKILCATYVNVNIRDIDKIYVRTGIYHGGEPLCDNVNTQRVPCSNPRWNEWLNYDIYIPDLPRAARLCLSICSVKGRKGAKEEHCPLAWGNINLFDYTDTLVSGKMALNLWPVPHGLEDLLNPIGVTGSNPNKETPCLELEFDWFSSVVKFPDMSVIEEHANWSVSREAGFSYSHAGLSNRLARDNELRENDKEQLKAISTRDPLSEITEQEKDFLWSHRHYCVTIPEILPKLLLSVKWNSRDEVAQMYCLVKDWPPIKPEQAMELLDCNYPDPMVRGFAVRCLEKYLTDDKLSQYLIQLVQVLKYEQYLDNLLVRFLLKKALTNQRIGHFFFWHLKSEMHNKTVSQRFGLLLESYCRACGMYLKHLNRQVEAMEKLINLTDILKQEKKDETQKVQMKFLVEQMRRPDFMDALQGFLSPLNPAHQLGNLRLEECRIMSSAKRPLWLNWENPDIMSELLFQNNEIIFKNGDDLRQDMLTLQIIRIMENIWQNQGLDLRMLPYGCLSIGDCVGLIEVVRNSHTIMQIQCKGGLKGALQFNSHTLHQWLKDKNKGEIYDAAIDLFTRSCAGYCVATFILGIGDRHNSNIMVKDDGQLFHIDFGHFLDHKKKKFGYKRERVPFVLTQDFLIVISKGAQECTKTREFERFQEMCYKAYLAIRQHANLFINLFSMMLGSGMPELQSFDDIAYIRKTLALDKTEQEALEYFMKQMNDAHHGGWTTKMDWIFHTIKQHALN
Sequence (P27986 whole entry partner, canonical isoform): as the sequence (P27986 whole entry partner, canonical isoform) above
Field: label. Allowed values: true (IC50 < 400 nM) or false (IC50 >= 400 nM).

# input I'd appreciate it if you could check whether CN(C)C(=O)/C=C/c1cnc2oc3c(N4CCOCC4)nc(-c4cccc5[nH]ccc45)nc3c2c1 [G] has IC50 smaller than 400 nM.
# output true

# input Lab note: IC50 threshold 400 nM. Does this compound come in strictly under it? COCCN(C)Cc1cnc2oc3c(N4CCOCC4)nc(-c4cccc5[nH]ccc45)nc3c2c1 [L]
# output false

# input Criterion: IC50 strictly below 400 nM. Is it met by c1cnc2oc3c(N4CCOCC4)nc(-c4ccnc5[nH]ccc45)nc3c2c1 [D] ?
# output true

# input Problem: For the compound c1cc(-c2nc(N3CCOCC3)c3oc4ncccc4c3n2)c2cc[nH]c2c1 [B] , is IC50 under 400 nM?
# output true

# input A record lists c1cc(-c2nc(N3CCOCC3)c3oc4ncc(CN5CCOCC5)cc4c3n2)c2cc[nH]c2c1 [K] . Is its IC50 below 400 nM?
# output true

---

target: PI3K p110γ (Homo sapiens (Human)); experiment: PI3K isoform biochemical assay, p110γ
For each entry below, report its IC50 value.
Write the value in nM as a bare number.

# input Can you look up the measured IC50 of `CN(C)Cc1cnc2oc3c(N4CCOCC4)nc(-c4cccc5[nH]ccc45)nc3c2c1` for me?
# output 213

# input IC50 lookup needed for `c1cc(-c2nc(N3CCOCC3)c3oc4ncccc4c3n2)c2cc[nH]c2c1` , thanks.
# output 317

# input Please give the measured IC50 for this compound: `c1cc(-c2nc(N3CCOCC3)c3sc4ncccc4c3n2)c2cc[nH]c2c1`
# output 873

---

target: PI3K p110α (Homo sapiens (Human)); assay: PI3K isoform biochemical assay, p110α
I'd appreciate it if you could supply IC50 values for the items below.
Note: unit nM is implicit; provide only the numeric part.

# input Request the reported IC50 associated with `N#CCCN1CCN(Cc2cnc3oc4c(N5CCOCC5)nc(-c5cccc6[nH]ccc56)nc4c3c2)CC1`
# output 597

# input Item `c1cc(-c2cnc3oc4c(N5CCOCC5)nc(-c5cccc6[nH]ccc56)nc4c3c2)c2cc[nH]c2c1` has what recorded IC50?
# output 88

# input Fill in: IC50 of `CN1CCN(Cc2cnc3oc4c(N5CCOCC5)nc(-c5cccc6[nH]ccc56)nc4c3c2)CC1` is ___
# output 680

# input // lookup IC50 for `c1cc(-c2nc(N3CCOCC3)c3sc4ncccc4c3n2)c2cc[nH]c2c1`
# output 54

# input Requested field: IC50. Item: `CN(C)Cc1cnc2oc3c(N4CCOCC4)nc(-c4cccc5[nH]ccc45)nc3c2c1`
# output 398

# input Looking for the measured IC50 of `c1cc(-c2nc(N3CCOCC3)c3oc4ncc(N5CCOCC5)cc4c3n2)c2cc[nH]c2c1` , can you help?
# output 96

meta.source: patent US9580442B2
